// data source = ChEMBL document CHEMBL3352017

# System: FaDu
# method summary: cells
# conditions: Homo sapiens
# Description: Growth inhibition of human FADU cells
Answer each item with its documented IC50.
Give bare numbers, in µM.

| molecule smiles | system | units of measure | IC50 |
| --- | --- | --- | --- |
| CC1=CC(C)(C)N=C(Nc2nc(C)c3cc(C)cc(C)c3n2)N1 | FaDu | µM | 1.9 |

Now let's try a different one.
Q: May I ask what IC50 has been recorded for CCOc1ccc2nc(NC3=NC(C)=CC(C)(C)N3)nc(C)c2c1 ?
Result: 18.8

====

For each of the compounds below, state its IC50.
# method summary: cells
# conditions: Homo sapiens
# Description: Growth inhibition of human 686LN cells
One number for each entry, in µM.

Illustrative cases are given below, each with its answer.
| molecule smiles | units of measure | IC50 |
| --- | --- | --- |
| CC1=CC(C)(C)N=C(Nc2nc(C)c3cc(C)cc(C)c3n2)N1 | µM | 2.4 |
| CC1=CC(C)(C)N=C(Nc2nc(C)c3cc(C)ccc3n2)N1 | µM | 49.3 |

Return reported IC50 values for all items listed beneath this line.
1. CCOc1ccc2nc(NC3=NC(C)=CC(C)(C)N3)nc(C)c2c1
2. CCOc1ccc2nc(Nc3nc(=O)cc(-c4ccccc4)[nH]3)nc(C)c2c1

Result:
1. 37.5
2. 37.8
